Tested on: U2OS
Assay: Multiplex assay against U2OS
Type: toxicity, cell-based
Conditions: human, 48 h, 10 µM, compound concentration 10 uM, replicate 2
experimental.readout: Population Mitotic Cells (%)
Expressed in %, but write only the number.

{"columns": ["compound", "experimental.readout", "endpoint.unit", "reported.value"],
 "data": [
  ["CC(C)NC(=O)N1CC[C@H](NC2=Nc3cc(F)ccc3N(CC(F)F)c3ccc(Cl)cc32)C1", "Population Mitotic Cells (%)", "%", 30],
  ["Cl.O=C(O)c1cc(-c2ccc(C3CCNCC3)cc2)c2ccc(-c3ccc(C(F)(F)F)cc3)cc2c1", "Population Mitotic Cells (%)", "%", 25],
  ["COC(=O)C1=C(C)NC(C)=C(C(=O)OCCCN2CCC(c3ccccc3)(c3ccccc3)CC2)[C@H]1c1cccc([N+](=O)[O-])c1", "Population Mitotic Cells (%)", "%", 0],
  ["CC(C)(C)NC[C@H](O)COc1nsnc1N1CCOCC1", "Population Mitotic Cells (%)", "%", 72],
  ["Cc1ccc2c(c1)c1c(n2CCc2ccc(C)nc2)CCN(C)C1 [LATREPIRDINE]", "Population Mitotic Cells (%)", "%", 37],
  ["Cc1c[nH]c2nccc(Oc3c(F)cc(Nc4cc(Cl)nc(N)n4)cc3F)c12", "Population Mitotic Cells (%)", "%", 23],
  ["COc1cc2ncn(-c3cc(OCc4ccccc4C(F)(F)F)c(C(N)=O)s3)c2cc1OC [GW843682X]", "Population Mitotic Cells (%)", "%", 28],
  ["O=c1cc(N2CCOCC2)oc2c(-c3cccc4c3sc3ccccc34)cccc12", "Population Mitotic Cells (%)", "%", 20],
  ["CC1=C(C(=O)Nc2cc3cn[nH]c3cc2F)C(c2ccc(C(F)(F)F)cc2)CC(=O)N1 (stereo not given)", "Population Mitotic Cells (%)", "%", 50],
  ["O=C(c1cc2c(cc1F)OC(c1ccc(F)cc1)(c1ccc(Cl)cc1Cl)O2)N1CCOCC1 (stereo not given)", "Population Mitotic Cells (%)", "%", 28]
]}

-- ask For the compound shown here, COc1ccc(-c2ccc3ncc4c(c3c2)n(-c2ccc(N3CCNCC3)c(C(F)(F)F)c2)c(=O)n4C)cn1.O=C(O)/C=C\C(=O)O , give the reported Population Mitotic Cells (%).
-- reply 0

-- ask For the compound shown here, COc1cc(Nc2nccc(-c3cnn4nc(OC)ccc34)n2)cc(C(F)(F)F)c1 , give the reported Population Mitotic Cells (%).
-- reply 30

-- ask For the compound shown here, CCOC(=O)Nc1cc(-c2ccc(C)c(NS(C)(=O)=O)c2)nn2c(C)nnc12 , give the reported Population Mitotic Cells (%).
-- reply 82

-- ask For the compound shown here, CNC(=O)Nc1ccc(-c2nc(N3CC4CCC(C3)O4)c3cnn(C4CCC5(CC4)OCCO5)c3n2)cc1 , give the reported Population Mitotic Cells (%).
-- reply 56

-- ask For the compound shown here, C[C@]12CC[C@@H]3c4ccc(O)cc4CC[C@H]3[C@@H]1CC[C@@H]2O , give the reported Population Mitotic Cells (%).
-- reply 27

-- ask For the compound shown here, CC(C)OC(=O)N1CCC(Oc2ncnc3c2cnn3-c2ccc(S(C)(=O)=O)cc2F)CC1 , give the reported Population Mitotic Cells (%).
-- reply 60

-- ask For the compound shown here, CC(C)Oc1ccccc1C(=O)Nc1ccccc1C(=O)Nc1cccc(S(=O)(=O)C(F)(F)F)c1 , give the reported Population Mitotic Cells (%).
-- reply 36

-- ask For the compound shown here, Cc1cccc(CN2CCN(C(c3ccccc3)c3ccc(Cl)cc3)CC2)c1.Cl.Cl (stereo not given) , give the reported Population Mitotic Cells (%).
-- reply 75

Every entry's value here was drawn from ChEMBL document CHEMBL4689842.
